- System: STEME (common chickweed)
- protocol-notes: Pre-emergence herbicidal activity, cool season
- Type: in vivo, Stellaria media
- measurement-conditions: lowest tested rate with 80% or greater inhibition; rates 300, 100, 30, 10 g/ha; about 14 days
observation-type: Pre-emergence activity GR80, STEME

- CCCN(CC)C(=O)n1cnc(S(=O)(=O)C(F)(F)Br)n1: 30 g/ha
- CN(C)C(=O)n1cnc(S(=O)(=O)C(F)F)n1: [empty]
- CN(Cc1ccccc1)C(=O)n1cnc(S(=O)(=O)C(F)(F)C(F)(F)Br)n1: [empty]
- CCSC(F)(F)S(=O)(=O)c1ncn(C(=O)N(C)C)n1: 300 g/ha
- CCN(CC)C(=S)n1cnc(S(=O)(=O)C(F)(F)C(F)F)n1: [empty]

Input CN(Cc1ccccc1)C(=O)n1cnc(S(=O)(=O)C(F)(F)Cl)n1 . Output Pre-emergence activity GR80, STEME: [empty]

Input CN(Cc1ccccc1)C(=O)n1cnc(S(=O)(=O)C(F)(F)C(F)F)n1 . Output Pre-emergence activity GR80, STEME: [empty]

Input O=C(N1CCOCC1)n1cnc(S(=O)(=O)C(F)F)n1 . Output Pre-emergence activity GR80, STEME: [empty]

Input CN(C)C(=O)n1cnc(S(=O)(=O)C(F)(F)C(F)(F)Br)n1 . Output Pre-emergence activity GR80, STEME: 300 g/ha
